# Test system: 556581-035-R-J1-PDC complex spheroid viability
# assay_notes: Anticancer human tumor 556581-035-R-J1-PDC patient-derived ovarian carcinoma cell line growth inhibition
# condition_context: second compound 3.16 µM; first compound 1 µM; stronger effect = lower value
parameter: viability, T/C

See these solved cases before continuing.
- CC(C)c1c(-c2ccccc2)nc2c(C#N)c[nH]n2c1=O + NC1CC1c1ccc(-c2cccc(O)c2)cc1: 86.7%
- COc1ccc([C@@H](O)c2cc(-c3ncnc4cc(N5CCOCC5)ccc34)c(F)cc2Cl)nn1 + NC1CCC(NC2CC2c2ccccc2)CC1: 45.3%
- CC1COCCN1c1cc(-c2ccnn2C)c2ccnc(-c3ccn[nH]3)c2n1 (configuration not stated) + NC1CC1c1ccc(-c2cccc(O)c2)cc1: 11%
- CC1COCCN1c1cc(C2(S(C)(=N)=O)CC2)nc(-c2ccnc3[nH]ccc23)n1 (configuration not stated) + NC1CCC(NC2CC2c2ccccc2)CC1: 67.2%
- COc1ccc([C@@H](O)c2cc(-c3ncnc4cc(N5CCOCC5)ccc34)c(F)cc2Cl)nn1 + NC1CC1c1ccc(-c2cccc(O)c2)cc1: 39.7%
- CC1(C)CCC(CN2CCN(c3ccc(C(=O)NS(=O)(=O)c4ccc(NCC5CCOCC5)c([N+](=O)[O-])c4)c(Oc4cnc5[nH]ccc5c4)c3)CC2)=C(c2ccc(Cl)cc2)C1 + NC1CCC(NC2CC2c2ccccc2)CC1: 70.6%

Turning now to a further molecule:
Quick check: viability, T/C of CC1COCCN1c1cc(-c2ccnn2C)c2ccnc(-c3ccn[nH]3)c2n1 (configuration not stated) + NC1CCC(NC2CC2c2ccccc2)CC1 ? 19.2%

###

# Tested on: 556581-035-R-J1-PDC complex spheroid viability
# assay_notes: Anticancer human tumor 556581-035-R-J1-PDC cell line growth inhibition;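 also: spheroids exposed to agents for seven days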
# condition_context: curve of first compound; second compound 1 µM
Form field: pIC50 (one value per entry).
Note on pIC50: it is the negative log10 of concentration, concentration in mol/L.

Quick check: pIC50 of O=C(C=Cn1cnc(-c2cc(C(F)(F)F)cc(C(F)(F)F)c2)n1)NNc1cnccn1 + NC1CC1c1ccc(-c2cccc(O)c2)cc1 ? 7.15

Quick check: pIC50 of Nc1ccccc1NC(=O)c1ccc(CNC(=O)OCc2cccnc2)cc1 + NC1CC1c1ccc(-c2cccc(O)c2)cc1 ? 7.07

###

Form field: viability, T/C (one value per entry).
# Test system: 556581-035-R-J1-PDC complex spheroid viability
# assay_notes: Anticancer human tumor 556581-035-R-J1-PDC cell line growth inhibition;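 also: spheroids exposed to agents for seven days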;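 as to viability, T/C: 100% = DMSO vehicle control wells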
# condition_context: second compound 10 µM; first compound 0.0949 µM; stronger effect = lower value
Give a bare numeral; the unit % is implied.

See these solved cases before continuing.
• CCc1c2c(nc3ccc(O)cc13)-c1cc3c(c(=O)n1C2)COC(=O)[C@]3(O)CC + NC1CCC(NC2CC2c2ccccc2)CC1 = 0.19
• CCN(c1cc(-c2ccc(CN3CCOCC3)cc2)cc(C(=O)NCc2c(C)cc(C)[nH]c2=O)c1C)C1CCOCC1 + NC1CCC(NC2CC2c2ccccc2)CC1 = 76.5
• CCN(c1cc(-c2ccc(CN3CCOCC3)cc2)cc(C(=O)NCc2c(C)cc(C)[nH]c2=O)c1C)C1CCOCC1 + NC1CC1c1ccc(-c2cccc(O)c2)cc1 = 82.1
• NS(=O)(=O)OCC1CC(n2ccc3c(NC4CCc5ccccc54)ncnc32)CC1O (stereo unspecified) + NC1CC1c1ccc(-c2cccc(O)c2)cc1 = 56.4
• Nc1ncn(C2CC(O)C(CO)S2)c(=O)n1 (stereo unspecified) + NC1CC1c1ccc(-c2cccc(O)c2)cc1 = 32.1

Turning now to a further compound:
Quick check: viability, T/C of Nc1ccccc1NC(=O)c1ccc(CNC(=O)OCc2cccnc2)cc1 + NC1CC1c1ccc(-c2cccc(O)c2)cc1 ? 46.5
